All figures here come from patent US11446298B2.

# Measurement target: UniProtKB P43116
# Sequence (P43116 whole entry): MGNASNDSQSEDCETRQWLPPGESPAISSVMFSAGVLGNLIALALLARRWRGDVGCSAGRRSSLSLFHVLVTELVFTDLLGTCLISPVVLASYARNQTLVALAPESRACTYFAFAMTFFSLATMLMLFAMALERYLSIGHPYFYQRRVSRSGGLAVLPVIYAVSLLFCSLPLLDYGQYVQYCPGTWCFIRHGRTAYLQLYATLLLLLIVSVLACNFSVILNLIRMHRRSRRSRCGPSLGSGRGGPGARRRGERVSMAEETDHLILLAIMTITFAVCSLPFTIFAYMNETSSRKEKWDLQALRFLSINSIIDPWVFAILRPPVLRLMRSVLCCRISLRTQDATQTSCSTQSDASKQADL
# Measurement notes: hEP2 b-Arrestin Assay (PathHunter HEK 293 PTGER2 b-arrestin cells, PGE2 5 μM)
# Measurement setup: antagonistic activity, beta-arrestin assay, HEK 293 PTGER2 cells, PGE2 5 μM (EC80); read-out: hEP2 b-arr IC50
# Method: The antagonistic activities of the compounds of formula (I) on the EP2 and EP4 receptors are also determined in accordance with the following experimental method. […] PathHunter Glo Detection Kit components are thawed and mix according to manufacturer's instructions: 1 part Galacton Star Substrate with 5 parts Emerald II™ Solution, and 19 parts of PathHunter Cell Assay Buffer, respectively. […] Luminescence counts are read on a BMG Fluostar Optima reader according to manufacturer's instructions. […]
pIC50: −log10 of the molar value.
Readout name: pIC50

[
  {
    "Molecule": "CCOc1cc(-c2cc(NCCc3c(C#N)ccc4ccccc34)ncn2)sc1C(=O)O [Example 68]",
    "Value observed": 8.15
  },
  {
    "Molecule": "CCOc1cc(-c2cc(NCCc3ccc(Cl)c4ccccc34)ncn2)ccc1OCC(=O)O [Example 63]",
    "Value observed": 7.00
  },
  {
    "Molecule": "COc1ccc2ccccc2c1CCNc1cc(-c2cc3cc(C(=O)O)ccc3[nH]2)ncn1 [Example 130]",
    "Value observed": 7.89
  },
  {
    "Molecule": "CCOc1cc(-c2cc(NCCc3ccc(F)c4ccccc34)ncn2)ccc1C(=O)O [Example 19]",
    "Value observed": 6.89
  },
  {
    "Molecule": "CCOc1cc(-c2cc(NCCc3c(C)c(C)cc4ccccc34)ncn2)sc1C(=O)O [Example 12]",
    "Value observed": 7.57
  },
  {
    "Molecule": "CCOc1cc(-c2cc(NCCc3c(C)ccc4cnccc34)ncn2)ccc1OCC(=O)O [Example 86]",
    "Value observed": 6.75
  },
  {
    "Molecule": "COc1ccc2ccccc2c1CCNc1cc(-c2cc(OCCN(C)C)c(C(=O)O)s2)ncn1 [Example 157]",
    "Value observed": 7.37
  },
  {
    "Molecule": "CCOc1cc(-c2cc(NCCc3c(F)ccc4ccccc34)ncn2)ccc1OCC(=O)O [Example 96]",
    "Value observed": 7.18
  },
  {
    "Molecule": "CCOc1cc(-c2cc(NCCc3c(OC)ccc4ccccc34)ncn2)ccc1CC(=O)O [Example 160]",
    "Value observed": 7.62
  },
  {
    "Molecule": "COc1ccc2ccccc2c1CCNc1cc(-c2ccc(-c3cc(O)no3)cc2)ncn1 [Example 134]",
    "Value observed": 8.10
  },
  {
    "Molecule": "CCOc1cc(-c2cc(NCCc3c(OC)ccc4ncccc34)ncn2)ccc1OCC(=O)O [Example 66]",
    "Value observed": 6.46
  },
  {
    "Molecule": "CCOc1cc(-c2cc(NCCc3c(OC)ccc4ccccc34)ncn2)sc1C(=O)NS(C)(=O)=O [Example 136]",
    "Value observed": 8.52
  },
  {
    "Molecule": "CCOc1cc(-c2cc(NCCc3c(OC)ccc4cccnc34)ncn2)sc1C(=O)O [Example 33]",
    "Value observed": 7.25
  },
  {
    "Molecule": "CCOc1nc(-c2cc(NCCc3c(OC)ccc4ccccc34)ncn2)sc1C(=O)O [Example 147]",
    "Value observed": 8.15
  },
  {
    "Molecule": "CCOc1cc(-c2cc(NCCc3cccc4[nH]ccc34)ncn2)sc1-c1noc(=O)[nH]1 [Example 137]",
    "Value observed": 7.80
  },
  {
    "Molecule": "CCOc1cc(-c2cc(NCCc3cccc4c(F)cccc34)ncn2)ccc1CC(=O)O [Example 163]",
    "Value observed": 7.10
  },
  {
    "Molecule": "CCOc1cc(-c2cc(NCCc3cccc4cc(C)n(C)c34)ncn2)sc1C(=O)O [Example 56]",
    "Value observed": 7.28
  }
]

###

# Measurement target: EP4 (Homo sapiens)
# Construct: BT549 breast cancer cells, express high endogenous EP4 levels and very low EP2 levels
# Sequence (P35408 whole entry): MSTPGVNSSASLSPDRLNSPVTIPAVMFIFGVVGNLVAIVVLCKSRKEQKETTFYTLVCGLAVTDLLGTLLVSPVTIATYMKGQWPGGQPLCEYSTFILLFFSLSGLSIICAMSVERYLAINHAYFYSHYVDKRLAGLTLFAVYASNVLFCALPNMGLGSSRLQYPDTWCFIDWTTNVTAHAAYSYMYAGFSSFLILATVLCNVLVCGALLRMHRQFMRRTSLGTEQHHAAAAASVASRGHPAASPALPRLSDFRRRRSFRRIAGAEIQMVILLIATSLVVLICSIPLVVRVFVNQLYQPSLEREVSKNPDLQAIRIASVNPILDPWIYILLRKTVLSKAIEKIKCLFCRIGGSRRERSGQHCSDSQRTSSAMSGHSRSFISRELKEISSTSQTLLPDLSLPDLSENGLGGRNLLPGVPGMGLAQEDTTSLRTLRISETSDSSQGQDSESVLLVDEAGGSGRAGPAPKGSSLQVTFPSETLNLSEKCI
# Measurement notes: hEP4 cAMP Assay (BT549 breast cancer cells, HTRF cAMP, PGE2 6 nM)
# Measurement setup: antagonistic activity, PGE2 6 nM (EC80)

[
  {
    "Sample smiles": "CCOc1cc(-c2cc(NCCc3ccc(F)c4ccccc34)ncn2)ccc1C(=O)O",
    "Measurement target": "EP4 (Homo sapiens)",
    "Units of measure": "nM",
    "IC50": 646
  },
  {
    "Sample smiles": "CCOc1cc(-c2cc(NCCc3cccc4sccc34)ncn2)ccc1CC(=O)O",
    "Measurement target": "EP4 (Homo sapiens)",
    "Units of measure": "nM",
    "IC50": 597
  },
  {
    "Sample smiles": "CCOc1cc(-c2cc(NCCc3c(OC)ccc4ccccc34)ncn2)sc1C(=O)NS(N)(=O)=O",
    "Measurement target": "EP4 (Homo sapiens)",
    "Units of measure": "nM",
    "IC50": 67
  },
  {
    "Sample smiles": "CCOc1cc(-c2cc(NCCc3ccc(F)c4ccccc34)ncn2)sc1C(=O)O",
    "Measurement target": "EP4 (Homo sapiens)",
    "Units of measure": "nM",
    "IC50": 62
  },
  {
    "Sample smiles": "O=C(O)c1ccc(-c2cc(NCCc3cccc4ccsc34)ncn2)cc1OC1CCC1",
    "Measurement target": "EP4 (Homo sapiens)",
    "Units of measure": "nM",
    "IC50": 263
  },
  {
    "Sample smiles": "CCOc1cc(-c2cc(NCCc3c(OC)ccc4ccccc34)ncn2)sc1-c1noc(=O)[nH]1",
    "Measurement target": "EP4 (Homo sapiens)",
    "Units of measure": "nM",
    "IC50": 8
  },
  {
    "Sample smiles": "CCOc1cc(-c2cc(NCCc3cccc4ncccc34)ncn2)sc1-c1noc(=O)[nH]1",
    "Measurement target": "EP4 (Homo sapiens)",
    "Units of measure": "nM",
    "IC50": 22
  },
  {
    "Sample smiles": "CCOc1cc(-c2cc(NCCc3cccc4ccccc34)ncn2)sc1C(=O)O",
    "Measurement target": "EP4 (Homo sapiens)",
    "Units of measure": "nM",
    "IC50": 14
  },
  {
    "Sample smiles": "CCOc1cc(-c2cc(NCCc3c(C)ccc4c3cnn4C)ncn2)ccc1OCC(=O)O",
    "Measurement target": "EP4 (Homo sapiens)",
    "Units of measure": "nM",
    "IC50": 495
  },
  {
    "Sample smiles": "Cc1ccc(CCNc2cc(-c3ccc(C(=O)O)c(OC4CCC4)c3)ncn2)c2ccccc12",
    "Measurement target": "EP4 (Homo sapiens)",
    "Units of measure": "nM",
    "IC50": 270
  },
  {
    "Sample smiles": "CCOc1cc(-c2cc(NCCc3c(F)ccc4ccccc34)ncn2)sc1C(=O)O",
    "Measurement target": "EP4 (Homo sapiens)",
    "Units of measure": "nM",
    "IC50": 21
  },
  {
    "Sample smiles": "CCOc1cc(-c2cc(NCCc3cccc4c(C)c(C)n(C)c34)ncn2)sc1C(=O)O",
    "Measurement target": "EP4 (Homo sapiens)",
    "Units of measure": "nM",
    "IC50": 148
  },
  {
    "Sample smiles": "CCOc1cc(-c2cc(NCCc3cccc4cc(C)oc34)ncn2)sc1C(=O)O",
    "Measurement target": "EP4 (Homo sapiens)",
    "Units of measure": "nM",
    "IC50": 88
  },
  {
    "Sample smiles": "CCOc1cc(-c2cc(NCCc3cccc4ccsc34)ncn2)ccc1C(=O)O",
    "Measurement target": "EP4 (Homo sapiens)",
    "Units of measure": "nM",
    "IC50": 619
  },
  {
    "Sample smiles": "CCOc1cc(-c2cc(NCCc3ccc(C(F)F)c4ccccc34)ncn2)ccc1C(=O)O",
    "Measurement target": "EP4 (Homo sapiens)",
    "Units of measure": "nM",
    "IC50": 128
  },
  {
    "Sample smiles": "CCOc1cc(-c2cc(NCCc3c(C)ccc4c3cnn4C)ncn2)sc1C(=O)O",
    "Measurement target": "EP4 (Homo sapiens)",
    "Units of measure": "nM",
    "IC50": 92
  },
  {
    "Sample smiles": "CCOc1cc(-c2cc(NCCc3c(C(F)F)ccc4ccccc34)ncn2)sc1C(=O)O",
    "Measurement target": "EP4 (Homo sapiens)",
    "Units of measure": "nM",
    "IC50": 368
  },
  {
    "Sample smiles": "CCOc1cc(-c2cc(NCCc3c(C#N)ccc4ccccc34)ncn2)sc1C(=O)O",
    "Measurement target": "EP4 (Homo sapiens)",
    "Units of measure": "nM",
    "IC50": 22
  },
  {
    "Sample smiles": "CCOc1cc(-c2cc(NCCc3c(F)ccc4ccccc34)ncn2)ccc1OCC(=O)O",
    "Measurement target": "EP4 (Homo sapiens)",
    "Units of measure": "nM",
    "IC50": 426
  },
  {
    "Sample smiles": "CCOc1cc(-c2cc(NCCc3cccc4cccnc34)ncn2)sc1-c1noc(=O)[nH]1",
    "Measurement target": "EP4 (Homo sapiens)",
    "Units of measure": "nM",
    "IC50": 17
  },
  {
    "Sample smiles": "COc1ccc2ccccc2c1CCNc1cc(-c2ccc(C(=O)O)c(CC(C)C)c2)ncn1",
    "Measurement target": "EP4 (Homo sapiens)",
    "Units of measure": "nM",
    "IC50": 308
  },
  {
    "Sample smiles": "CCOc1cc(-c2cc(NCCc3cccc4cc[nH]c34)ncn2)sc1C(=O)O",
    "Measurement target": "EP4 (Homo sapiens)",
    "Units of measure": "nM",
    "IC50": 244
  },
  {
    "Sample smiles": "CCOc1cc(-c2cc(NCCc3c(OC)ccc4ncccc34)ncn2)sc1-c1noc(=O)[nH]1",
    "Measurement target": "EP4 (Homo sapiens)",
    "Units of measure": "nM",
    "IC50": 27
  },
  {
    "Sample smiles": "CCOc1cc(-c2cc(NCCc3c(OC)ccc4ccccc34)ncn2)ccc1OCC(=O)O",
    "Measurement target": "EP4 (Homo sapiens)",
    "Units of measure": "nM",
    "IC50": 654
  },
  {
    "Sample smiles": "CCCCOc1cc(-c2cc(NCCc3c(OC)ccc4ccccc34)ncn2)cc(F)c1C(=O)O",
    "Measurement target": "EP4 (Homo sapiens)",
    "Units of measure": "nM",
    "IC50": 446
  },
  {
    "Sample smiles": "CCOc1cc(-c2cc(NCCc3c(OCC)ccc4ccccc34)ncn2)sc1C(=O)O",
    "Measurement target": "EP4 (Homo sapiens)",
    "Units of measure": "nM",
    "IC50": 33
  },
  {
    "Sample smiles": "CCOc1cc(-c2cc(NCCc3cccc4ccccc34)ncn2)ccc1C(=O)O",
    "Measurement target": "EP4 (Homo sapiens)",
    "Units of measure": "nM",
    "IC50": 910
  },
  {
    "Sample smiles": "COc1ccc2c(OC)cccc2c1CCNc1cc(-c2ccc(C(=O)O)c(OC3CCC3)c2)ncn1",
    "Measurement target": "EP4 (Homo sapiens)",
    "Units of measure": "nM",
    "IC50": 758
  },
  {
    "Sample smiles": "CCOc1cc(-c2cc(NCCc3c(C)ccc4cnccc34)ncn2)sc1C(=O)O",
    "Measurement target": "EP4 (Homo sapiens)",
    "Units of measure": "nM",
    "IC50": 130
  },
  {
    "Sample smiles": "CCOc1cc(-c2cc(NCCc3c(OC(C)C)ccc4ccccc34)ncn2)sc1C(=O)O",
    "Measurement target": "EP4 (Homo sapiens)",
    "Units of measure": "nM",
    "IC50": 61
  },
  {
    "Sample smiles": "CCOc1cc(-c2cc(NCCc3c(C)ccc4ccccc34)ncn2)sc1C(=O)O",
    "Measurement target": "EP4 (Homo sapiens)",
    "Units of measure": "nM",
    "IC50": 47
  },
  {
    "Sample smiles": "COc1ccc2ccccc2c1CCNc1cc(-c2ccc(-c3cc(O)no3)cc2)ncn1",
    "Measurement target": "EP4 (Homo sapiens)",
    "Units of measure": "nM",
    "IC50": 351
  },
  {
    "Sample smiles": "CCOc1cc(-c2cc(NCCc3cccc4sccc34)ncn2)ccc1C(=O)O",
    "Measurement target": "EP4 (Homo sapiens)",
    "Units of measure": "nM",
    "IC50": 867
  },
  {
    "Sample smiles": "CCOc1cc(-c2cc(NCCc3c(OC)ccc4cccnc34)ncn2)sc1C(=O)O",
    "Measurement target": "EP4 (Homo sapiens)",
    "Units of measure": "nM",
    "IC50": 223
  }
]
